Reference source for all entries: ChEMBL document CHEMBL5137112

target: Serotonin 2 receptors; 5-HT2a & 5-HT2c (Homo sapiens) (UniProt P28223+P28335); test: Selectivity ratio of Ki for 5-HT2A receptor (unknown origin) to Ki for 5-HT2C receptor (unknown origin); type: protein assay
Sequence (P28223 whole entry, looked up): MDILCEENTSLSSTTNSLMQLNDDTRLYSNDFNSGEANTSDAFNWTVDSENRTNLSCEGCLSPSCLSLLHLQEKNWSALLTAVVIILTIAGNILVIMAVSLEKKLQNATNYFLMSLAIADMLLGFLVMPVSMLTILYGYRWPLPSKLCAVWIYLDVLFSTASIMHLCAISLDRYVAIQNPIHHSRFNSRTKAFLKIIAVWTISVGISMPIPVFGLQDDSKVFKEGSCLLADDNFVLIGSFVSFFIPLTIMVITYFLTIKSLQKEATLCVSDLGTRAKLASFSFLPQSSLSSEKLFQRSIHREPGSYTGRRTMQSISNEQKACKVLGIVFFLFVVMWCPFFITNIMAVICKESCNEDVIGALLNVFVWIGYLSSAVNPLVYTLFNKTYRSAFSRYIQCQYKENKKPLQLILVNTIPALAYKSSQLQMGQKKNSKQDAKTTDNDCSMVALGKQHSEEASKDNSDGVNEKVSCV
Sequence (P28335 whole entry, looked up): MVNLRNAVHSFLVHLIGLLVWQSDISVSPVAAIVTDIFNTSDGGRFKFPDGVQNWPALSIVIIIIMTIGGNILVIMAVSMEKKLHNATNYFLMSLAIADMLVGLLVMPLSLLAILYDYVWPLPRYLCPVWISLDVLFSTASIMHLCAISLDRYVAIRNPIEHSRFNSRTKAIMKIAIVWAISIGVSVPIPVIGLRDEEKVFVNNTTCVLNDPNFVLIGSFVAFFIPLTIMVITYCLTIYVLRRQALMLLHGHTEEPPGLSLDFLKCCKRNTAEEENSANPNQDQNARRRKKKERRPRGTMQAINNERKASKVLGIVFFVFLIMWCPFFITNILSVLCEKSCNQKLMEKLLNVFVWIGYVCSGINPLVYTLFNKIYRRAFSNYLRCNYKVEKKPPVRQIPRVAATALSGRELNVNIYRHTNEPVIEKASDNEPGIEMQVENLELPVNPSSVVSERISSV
The reader will find reported Ratio Ki values listed item by item below.

COc1cc2c(cc1OCc1ccc(Br)cc1)C[C@H]1c3c(cc(OC)c(OC)c3-2)CCN1C
1.5
COc1cc2c(cc1OC(C)C)C[C@H]1c3c(cc(OC)c(OC)c3-2)CCN1C
1.3
CCC(C)Oc1cc2c3c(c1OC)-c1cc(OC)c(OC)cc1C[C@@H]3N(C)CC2 (some centres undefined)
3.1

Query: Ratio Ki; subject: `COc1cc2c(cc1OCC1CC1)C[C@H]1c3c(cc(OC)c(OC)c3-2)CCN1C`
1.1

Could you tell me which Ratio Ki is on file for `CCCCCCOc1cc2c(cc1OC)-c1c(OC)c(OC)cc3c1[C@H](C2)N(C)CC3` ?
0.9
